methodDescription: Early clinical studies: PK profile of Compound 1 given as immediate release (IR) formulation
Type: in vivo
condition: human, plasma, oral, phase until approximately 12 hours post-dose, read-out: elimination half-life (t1/2)
Method: The formulations used in early clinical studies included a 0.1 mg/mL oral solution to support doses up to 5 mg; active-pharmaceutical-ingredient (API) in HPMC capsules for doses between 5 mg to 120 mg; and roller-compacted IR tablets of 10, 20 and 30 mg strength. The pharmacokinetic (PK) profile of Compound 1 when administered as an immediate release (IR) formulation was characterized by rapid absorption and elimination with time to maximum concentration (Tmax) of approximately 2 hours post-dose. […]
parameter: half-life

Param item = CN1C(=O)[C@@H](NC(=O)c2nnc(Cc3ccccc3)[nH]2)COc2ccccc21 ; retrieve measured half-life.
2 to 3 h

###

methodDescription: Early clinical studies: PK profile of Compound 1 given as immediate release (IR) formulation
Assay type: in vivo
condition: human, plasma, oral, read-out: slower terminal phase t1/2
parameter: half-life

Param item = CN1C(=O)[C@@H](NC(=O)c2nnc(Cc3ccccc3)[nH]2)COc2ccccc21 ; retrieve measured half-life.
5 to 6 h

###

methodDescription: Early clinical studies: PK profile of Compound 1 given as immediate release (IR) formulation
Assay type: in vivo
condition: human, plasma, oral, post-dose, read-out: time to maximum concentration (Tmax)
parameter: Tmax

Param item = CN1C(=O)[C@@H](NC(=O)c2nnc(Cc3ccccc3)[nH]2)COc2ccccc21 ; retrieve measured Tmax.
~2 h

Values were extracted from patent US20220218719A1.
